Recorded values, source ChEMBL document CHEMBL3421584.

List of Emax values.
Target: Metabotropic glutamate receptor 2 (Homo sapiens)
Assay: Negative allosteric modulation of human mGluR2 receptor expressed in CHO cell membranes assessed as inhibition of glutamate responses after 30 mins by [35S]GTPgammaS binding assay
Format: functional
Number in %, nothing else.

Recorded results for 3 compounds are shown here.
compound	system	uom	quantitative result
CCC1CN(c2ccc(C(F)(F)F)cc2)C(=O)c2c(-c3ccnc(C)c3)cnn21 (centres undefined)	Metabotropic glutamate receptor 2 (Homo sapiens)	%	106
Cc1cc(-c2cnn3c2C(=O)N(c2ccc(C(C)O)cc2)C[C@@H]3C)ccn1 (some centres undefined)	Metabotropic glutamate receptor 2 (Homo sapiens)	%	49
C[C@H]1CN(c2ccc(C(F)(F)F)c(Cl)c2)C(=O)c2c(-c3ccnc(C#N)c3)cnn21	Metabotropic glutamate receptor 2 (Homo sapiens)	%	109

Consider now this further compound.
Prompt line: Could you share which Emax value was measured for Cc1cc(-c2cnn3c2C(=O)N(c2ccc(C(F)(F)F)cc2)C[C@@H]3C)ccn1 ?
Response line: 106
